Tested on: HEK-293T
Assay: Incucyte cell viability with HEK293T; note: unitless GR value; below 1 slowed growth and below 0 cell loss
Type: toxicity, cell-based
Conditions: human, 18 h, 10 µM, compound concentration 10 uM, replicate number 1, timepoint 18 hours
Readout Name: Growth Rate
One number for each entry.

# count of solved cases: 3
| Compound | Readout Name | Recorded Number |
| --- | --- | --- |
| Br.Br.c1ncc(CC2CCNCC2)[nH]1 | Growth Rate | 0.81 |
| CN(C)C(=O)Cn1cc(-c2ccc(-c3cncc4ccccc34)cc2)cn1 | Growth Rate | 0.9 |
| CC1(C)[C@H]2C[C@H](C/C=C\CCCC(=O)O)[C@@H](NC(=O)c3csc4ccc(O)cc34)[C@@H]1C2 | Growth Rate | 0.94 |

Value sought for every listed compound: Growth Rate.
1. c1ccc(NCc2ccc(CNc3ccccn3)cc2)nc1
2. CCC(=O)NC[C@@H]1C[C@H]1c1cccc2c1CCO2 [TASIMELTEON]
3. CN(c1ncccc1CNc1ccnc(-c2cc3cc(Cl)ccc3[nH]2)n1)S(C)(=O)=O
4. CO[C@H]1CC[C@@H](C(=O)c2ccc3nc4c(cc3c2)CCCO4)CC1
5. CC[C@H](Nc1ncnc2[nH]cnc12)c1nc2cccc(F)c2c(=O)n1-c1ccccc1 [IDELALISIB]
6. Br.Oc1cc2c(cc1O)C(c1ccccc1)CNCC2 (centres undefined)

Output:
[0.98, 0.92, -0.36, 0.59, 0.56, 0.92]

###

Please respond with reported Growth Rate for every item in the list.
Tested on: HEK-293T
Assay: Incucyte cell viability with HEK293T; note: unitless GR value; below 1 slowed growth and below 0 cell loss
Type: toxicity, cell-based
Conditions: human, 18 h, 10 µM, compound concentration 10 uM, replicate number 2, timepoint 18 hours
Give bare numbers.

# count of solved cases: 3
| Compound | Growth Rate |
| --- | --- |
| S=C(NCCCc1c[nH]cn1)NCCCN(Cc1ccc(Cl)c(Cl)c1)c1ccc(Br)cn1 | 0.19 |
| COc1ncc2cc(C(=O)Nc3cc(C(=O)NCc4cccc(Cl)c4)ccc3Cl)c(=O)[nH]c2n1 | 0.9 |
| CSc1ccccc1N1CCN(CCCCCC(=O)NC2CCCc3ccccc32)CC1.Cl (stereo not given) | 0.15 |

Value sought for every listed compound: Growth Rate.
1. CC(C)c1noc(N2CCC(COc3ccc(-c4ccc(S(C)(=O)=O)cc4)nc3)CC2)n1 [GSK-1292263]
2. Cl.FC(F)(F)c1ccc(N2CCNCC2)nc1Cl

Output:
0.41
0.89

###

Test system: U2OS
Experiment: Incucyte cell viability with U2OS; note: unitless GR value; below 1 slowed growth and below 0 cell loss
Type: toxicity, cell-based
Details: human, 0 h, 10 µM, compound concentration 10 uM, replicate number 2, timepoint 0 hours
Where a SMILES comes first, the peptide text is derived from it. [ ]: non-standard residue; d: D form. Arg(Me) = CNC(=N)NCCC[C@H](N)C(=O)O; d3Pal = N[C@H](Cc1cccnc1)C(=O)O; azaGly = NNC(=O)O
Readout Name: Growth Rate
One number for each entry.

# count of solved cases: 10
| Compound | Growth Rate |
| --- | --- |
| C[N+]1(C)[C@@H]2C[C@@H](OC(=O)C(O)(c3cccs3)c3cccs3)C[C@H]1[C@@H]1O[C@@H]12.O.[Br-] [TIOTROPIUM BROMIDE] | 0.9 |
| CC(C)c1noc(N2CCC(COc3ccc(-c4ccc(S(C)(=O)=O)cc4)nc3)CC2)n1 [GSK-1292263] | -0.96 |
| CC(F)(F)CN1CCOc2c(nn(-c3ccccc3Cl)c2-c2ccc(Cl)cc2)C1=O | -1 |
| O=S(=O)(c1ccccc1)N(CC(F)(F)F)c1ccc(C(O)(C(F)(F)F)C(F)(F)F)cc1 [T091317] | -0.29 |
| CCCCOCCOc1nc(-c2ccc(C(=O)O)c(F)c2)sc1C | -0.3 |
| CCc1cc2c(cc1-c1cccc(S(=O)(=O)F)c1)C(C)(C)c1[nH]c3cc(C#N)ccc3c1C2=O | -1 |
| Cc1nccc(COC(=O)N2C[C@@H]3[C@@H](CNC(=O)c4ccc5[nH]nnc5c4)[C@@H]3C2)n1 [BI 3017] | 0.45 |
| Cc1cc(Nc2ncc(Cl)c(Nc3ccccc3S(=O)(=O)C(C)C)n2)c(OC(C)C)cc1C1CCNCC1 [CERITINIB] | -0.57 |
| C=CCN1C[C@H](C(=O)N(CCCN(C)C)C(=O)NCC)C[C@@H]2c3cccc4[nH]cc(c34)C[C@H]21 [CABERGOLINE] | -1 |
| O=c1nc2[nH]c3ccccc3nc-2c(=O)[nH]1 [ALLOXAZINE] | -1 |

Value sought for every listed compound: Growth Rate.
1. S=C(NCCCc1c[nH]cn1)NCCCN(Cc1ccc(Cl)c(Cl)c1)c1ccc(Br)cn1
2. Cl.Clc1ccc2nsnc2c1NC1=NCCN1 [TIZANIDINE HYDROCHLORIDE]
3. N[C@@]1(C(=O)O)CC[C@H]2[C@H](C(=O)O)[C@H]21
4. NC(=O)c1ccc(CNC(=O)NC[C@H]2CN(Cc3ccc(Cl)c(Cl)c3)CCO2)cc1
5. C[C@H](N)Cn1ccc2cc(F)c(Cl)cc21.O=C(O)/C=C/C(=O)O
6. CC(C)C[C@@H]1NC(=O)[C@@H](C(C)C)NC(=O)[C@@H]2CCCN2C(=O)[C@@H](CC(=O)O)NC(=O)[C@@H](Cc2c[nH]c3ccccc23)NC1=O [BQ-123] (cyclo(L[dW][dD]P[dV]))

Output:
[-1, -1, -1, 0.11, 0.24, -1]

Value sought for every listed compound: Growth Rate.
1. O=C(O)CCn1c2c(c3ccccc31)C[C@H](NS(=O)(=O)c1ccc(F)cc1)CC2 [RAMATROBAN]
2. C[C@@H](c1ccc(F)cc1)n1nnc2cnc3ccc(-c4ccc5ocnc5c4)cc3c21
3. CNC(=N)NCCC[C@H](NC(=O)[C@H](CC(C)C)NC(=O)NNC(=O)[C@H](Cc1ccccc1)NC(=O)[C@H](CO)NC(=O)[C@H](CC(N)=O)NC(=O)[C@@H](Cc1cccnc1)NC(=O)[C@H](N)Cc1ccc(O)cc1)C(=O)NCC(N)=O [KISS1-543] (H-[dY][d3Pal]NSF[azaGly]L[Arg(Me)]G-NH2)

Output:
1: -1; 2: 0.33; 3: 0.72

Value sought for every listed compound: Growth Rate.
1. Cc1cnc(CNCC2(F)CCN(C(=O)c3ccc(F)c(Cl)c3)CC2)nc1
2. CC(C)CCC[C@@H](C)[C@H]1CC[C@H]2[C@@H]3[C@H](O)C=C4C[C@@H](O)CC[C@]4(C)[C@H]3CC[C@]12C

Output:
1. 0.21
2. 0.03
